FYI, the data here is from PubChem BioAssay (NCI).

System: PC-3 prostate
Assay: NCI-60 one-dose screen, 48 h
Conditions: 10 µM unless noted
Compounds without any hit were thinned out: in the full panel of roughly 83,000, 20% have a hit. Calls of active or inactive are those of the source. Rule for the calls: active = growth percent below 10; inactive = the rest.
// one of active, inactive, no free text

>>> assigned_category("C=C(CNCCc1ccc(O)cc1)[C@@H]1CC[C@]2(CO)CC[C@]3(C)[C@H](CC[C@@H]4[C@@]5(C)CCC(NCCO)C(C)(C)[C@@H]5CC[C@]43C)[C@@H]12 (some centres not stated)")
"active"

Exercise: Which outcome did this test record for the molecule `N#C/C(=C\c1ccc2ccccc2c1)c1cc2ccccc2[nH]1` ?
Key: inactive

Exercise: Which outcome did this test record for the molecule `CCN(CC)CCOc1ccc(C(=C(C)c2ccc(Cl)cc2)c2ccc(OCCN(CC)CC)cc2)cc1` ?
Key: active

Exercise: Which outcome did this test record for the molecule `CCOC(=O)c1c(NC(=O)c2ccc(C(C)C)cc2)sc2c(CN(C)C)c(O)ccc12` ?
Key: inactive

* * *

Tested on: OVCAR-4 ovarian
Test: NCI-60 one-dose screen, 48 h (100 = growth as untreated, 0 = no growth, -100 = all killed)
Details: 10 µM unless noted
Compounds without any hit were thinned out: in the full panel of roughly 83,000, 20% have a hit.
growth: recorded values
Respond with the bare value in %.

Recorded results for 10 compounds are shown here.
>>> recorded_number("COC(C(=O)[C@@H](O)[C@@H](C)O)[C@@H]1Cc2cc3cc(O[C@H]4C[C@@H](O[C@H]5C[C@@H](O)[C@H](O)C(C)O5)[C@H](O)C(C)O4)cc(O)c3c(O)c2C(=O)[C@H]1O[C@H]1C[C@@H](O[C@H]2C[C@@H](O[C@H]3C[C@@H](OC)[C@H](O)C(C)O3)[C@@H](O)C(C)O2)[C@H](O)C(C)O1 (some centres not stated)")
64.5
>>> recorded_number("COc1cc(-c2cc(-c3cccs3)c(C#N)c(N3CCOCC3)n2)cc(OC)c1OC")
85.8
>>> recorded_number("COC(=O)/C(CCC=C(C)C)=C1\\[C@@H](OC(C)=O)C[C@@]2(C)[C@H]1C[C@@H](O)[C@H]1[C@@]3(C)CC[C@H](NCCN)[C@@H](C)[C@@H]3CC[C@@]12C")
90.2
>>> recorded_number("C=C(CNCCc1ccc(O)cc1)[C@@H]1CC[C@]2(CO)CC[C@]3(C)[C@H](CC[C@@H]4[C@@]5(C)CCC(NCCO)C(C)(C)[C@@H]5CC[C@]43C)[C@@H]12 (some centres not stated)")
-15.9
>>> recorded_number("Cc1cccc2c1NC(=O)C2(c1ccc(O)cc1)c1ccc(O)cc1")
-16
>>> recorded_number("CCOC(=O)c1c(C)nc2c(c1N)CC(=O)N2Cc1cc(F)cc(Cl)c1")
67.5
>>> recorded_number("CCN1CC(=O)N(/N=C2\\C(=O)Nc3ccccc32)C1=S")
97.2
>>> recorded_number("Clc1ccc(CNc2c3ccccc3nc3ccccc23)cc1")
33.1
>>> recorded_number("COc1ccc(-c2nc(/C=C3\\SC(=NCc4ccccc4)NC3=O)c3ccccn23)cc1")
-71.9
>>> recorded_number("N#Cc1c(-c2ccc(Cl)cc2)nc(NN=Cc2cccc(O)c2)nc1N1CCOCC1")
72.4

Exercise: Please report the recorded growth for `CC(=O)Cc1nsc(NC(=O)c2cc(-c3cc(Cl)cc(Cl)c3)oc2C)n1` .
Key: 104

Exercise: Please report the recorded growth for `COc1ccc2cc(-c3ccc(NC(C)=O)c(=O)o3)ccc2c1` .
Key: 101

Exercise: Please report the recorded growth for `COc1cccc(NC(=O)Cn2cc(CN3CCN(c4ccnc5cc(Cl)ccc45)CC3)nn2)c1` .
Key: 85.9

Exercise: Please report the recorded growth for `CC(=O)N(N=Nc1ccccc1)c1cccc2ccccc12` .
Key: 94.5

* * *

Tested on: UACC-257 melanoma
Assay: NCI-60 one-dose screen, 48 h (100 = growth as untreated, 0 = no growth, -100 = all killed)
Details: 10 µM unless noted
This is part of a sample that, as a whole, favours compounds with a hit. Of some 83,000 tested, about 20% had one in any assay.
growth: recorded values
Respond with the bare value in %.

Recorded results for 5 compounds are shown here.
>>> recorded_number("CN(C)Cc1ccc(NC(=O)c2cncc(C#Cc3cnc(N)c4ncccc34)c2)cc1F")
88.7
>>> recorded_number("C=C1CC[C@@H]2[C@](C)(COC(C)=O)[C@H](OC(C)=O)CC[C@@]2(C)[C@@H]1CC(Sc1ccccc1)C1=CCOC1=O (some centres undefined)")
29.4
>>> recorded_number("CCNC(=O)c1[nH]cc(-c2ccccc2)c1-c1cc(OC)c2c(c1OC)OCO2")
102
>>> recorded_number("CCOC(=O)c1c(NC(=O)c2ccc(C(C)C)cc2)sc2c(CN(C)C)c(O)ccc12")
67.3
>>> recorded_number("COc1cc(OC)c2sc(-c3ccc(-n4cncc4-c4ccc(OC)c(OC)c4)cc3)nc2c1")
71.5

Exercise: Please report the recorded growth for CCCCCCC1(C)NCCO1 (centres undefined) .
Key: 99

Exercise: Please report the recorded growth for `C=C(C)[C@@H]1CC[C@]2(C(=O)OC)CC[C@]3(C)[C@H](CC[C@@H]4[C@@]5(C)C/C(=C/NC(N)=S)C(=O)C(C)(C)[C@@H]5CC[C@]43C)[C@@H]12` .
Key: 100

Exercise: Please report the recorded growth for `N#Cc1c(N)nnn1Cc1cc(=O)oc2c1ccc1ccccc12` .
Key: 97.7

Exercise: Please report the recorded growth for `O=Cc1ccc([N+](=O)[O-])s1` .
Key: 97.3

* * *

System: DU-145 prostate
Experiment: NCI-60 one-dose screen, 48 h (100 = growth as untreated, 0 = no growth, -100 = all killed)
Conditions: 10 µM unless noted
Compounds without any hit were thinned out: in the full panel of roughly 83,000, 20% have a hit.
measurement_label: growth (%)
Respond with the bare value in %.

Recorded results for 3 compounds are shown here.
>>> recorded_number("COc1cc(CNS(=O)(=O)c2ccc(C)cc2)ccc1OCc1cn(-c2ccc(Br)cc2)nn1")
104
>>> recorded_number("COc1cc2oc(-c3cccc(NC(=O)c4cccc(Br)c4)c3)cc(=O)c2c(OC)c1OC")
54.4
>>> recorded_number("COc1ccc(/C=N/NC(=O)CCN2c3ccccc3Sc3ccccc32)cc1")
102

Exercise: Give the reported growth for `CC(=O)OC[C@]12CCC(C)(C)C[C@H]1[C@@]1(O)[C@H](O)C[C@@H]3[C@@]4(C)CCCNC(C)(C)[C@@H]4CC[C@@]3(C)[C@]1(C)CC2` (system: DU-145 prostate).
Key: 111

Exercise: Give the reported growth for `NC(=O)c1c(NC(=O)c2ccccc2)sc2c1CCC(=O)C2` (system: DU-145 prostate).
Key: 35

* * *

System: UACC-257 melanoma
Test: NCI-60 one-dose screen, 48 h (100 = growth as untreated, 0 = no growth, -100 = all killed)
Details: 10 µM unless noted
About 83,000 compounds went through this panel and 20% of them were active in at least one assay; those are over-represented in the sample as a whole. Activity calls are given as the source filed them. The calls were made as follows: active = growth percent below 10; inactive = the rest.
measurement_label: growth

Recorded results for 10 compounds are shown here.
>>> result("CC(C)CCC[C@@H](C)[C@H]1CC[C@H]2[C@@H]3CC=C4C[C@@H](C(C(=O)O)C(=O)O)CC[C@]4(C)[C@H]3CC[C@]12C")
"-49.8% (active)"
>>> result("O=C(Nc1ccc(NC(=O)c2cc(=O)[nH]c3ccccc23)cc1)Nc1cccc(C(F)(F)F)c1")
"80.5% (inactive)"
>>> result("CC1=C(CCC(C)N(C)Cc2ccc(OCCCN3CCCC3)cc2)C(C)(C)CCC1 (stereo not drawn)")
"-74.3% (active)"
>>> result("CN1CCN(Cc2ccc(NC(=O)c3cncc(C#Cc4cnc(N)c5ccccc45)c3)cc2C(F)(F)F)CC1")
"-90.1% (active)"
>>> result("CC(C)(C)[Si](C)(C)O[C@H]1C(=O)C=CN2CC=C[C@@H]12")
"93.6% [100 µM] (inactive)"
>>> result("Nc1ncnc2c1N=C(c1ccc3c(c1)OCO3)CC(c1ccc([N+](=O)[O-])cc1)N2 (stereo not drawn)")
"77.8% (inactive)"
>>> result("O=C1N(Cc2ccccc2Cl)c2ccccc2C12NN=C(c1cccc(Cl)c1)S2 (stereo not drawn)")
"18.9% (inactive)"
>>> result("C=C1C(=O)O[C@H]2[C@H]1CC/C(COC(=O)CCSCCC(=O)OC/C1=C/CC[C@@]3(C)O[C@H]3[C@H]3OC(=O)C(=C)[C@@H]3CC1)=C\\CC[C@@]1(C)O[C@@H]21")
"-13.7% (active)"
>>> result("CCOC(=O)c1cc(C(=O)c2cc(OC)c(OC)c(OC)c2)n2ccc(-c3ccncc3)cc12")
"80.8% (inactive)"
>>> result("Cc1ccc(-c2nc(/C=C3/C(=O)Nc4ccccc43)c3ccccn23)cc1")
"102% (inactive)"

Exercise: Please report the recorded growth for O=C(c1ccccc1)C1C(=O)N2C(=S)N(c3ccccc3)C(=O)C2C1c1ccc(Cl)cc1 (stereo not drawn) .
Key: 101% (inactive)

Exercise: Please report the recorded growth for `O=C(Cc1ccccc1)Nc1nc(O)c(/C=C2\C(=O)C=Cc3ccccc32)s1` .
Key: 106% (inactive)

Exercise: Please report the recorded growth for `COc1cc(-c2nc(SCC(C)C)nc(Nc3cccc4ccccc34)c2C#N)cc(OC)c1OC` .
Key: 106% (inactive)

Exercise: Please report the recorded growth for `Cc1cccc(Cl)c1NC(=O)c1ccc2nc(NC(=O)NCCN(C)C)sc2c1` .
Key: 86.1% (inactive)

Exercise: Please report the recorded growth for `CCCNC(=O)Oc1ccc(/C(=C(/C)Cc2ccc(OC)cc2)c2ccc(OCCCN(C)C)cc2)cc1` .
Key: 99.2% (inactive)

Exercise: Please report the recorded growth for `CN(C)C1CCN(Cc2ccc(NC(=O)c3cncc(C#Cc4cnc(N)c5ncccc45)c3)cc2C(F)(F)F)CC1` .
Key: 15.5% (inactive)

Exercise: Please report the recorded growth for `Cc1ccc(-c2nc3nc(-c4ccc(F)cc4)nc(N4CCNCC4)c3o2)cc1` .
Key: 105% (inactive)

Exercise: Please report the recorded growth for `C=CCn1c(SCC(=O)NCc2cc(C)c(O)c(C)c2)nc2ccc(Cl)cc2c1=O` .
Key: 102% (inactive)
